system-name: corticotropin releasing factor 1 receptor; note: reference of the scale not given here
assay-details: cell-based or functional assay
Ends that are not written are not given here.
endpoint: CRF1R Emax
Please answer using a numeric value trailed by its unit.

Example entries begin here.
binder: DNPSLSIDLPFQLLRTLLELARTQSQRERAEQNAIIFASV-NH2 [SEQ ID NO 182]
CRF1R Emax: 89.7%
--
binder: ZGPPISIDLPITLLRKMIEIEKQEKEKQQAANNRLLLDTI (C-terminal amide) [SEQ ID NO 24]
CRF1R Emax: 18%

In the following, a different binder is considered.
Task: Could you tell me which CRF1R Emax is on file for ZGPPISIDVPFQLLRKMIEIEKQEKEKQQATTNARILARV (C-terminal amide) [SEQ ID NO 172] ?
Output: 68%

These entries and their values trace back to patent US20030148958A1.
